# Tested Target: Peroxisome proliferator-activated receptor alpha (Homo sapiens, UniProt Q07869)
# Sequence (Q07869 whole entry): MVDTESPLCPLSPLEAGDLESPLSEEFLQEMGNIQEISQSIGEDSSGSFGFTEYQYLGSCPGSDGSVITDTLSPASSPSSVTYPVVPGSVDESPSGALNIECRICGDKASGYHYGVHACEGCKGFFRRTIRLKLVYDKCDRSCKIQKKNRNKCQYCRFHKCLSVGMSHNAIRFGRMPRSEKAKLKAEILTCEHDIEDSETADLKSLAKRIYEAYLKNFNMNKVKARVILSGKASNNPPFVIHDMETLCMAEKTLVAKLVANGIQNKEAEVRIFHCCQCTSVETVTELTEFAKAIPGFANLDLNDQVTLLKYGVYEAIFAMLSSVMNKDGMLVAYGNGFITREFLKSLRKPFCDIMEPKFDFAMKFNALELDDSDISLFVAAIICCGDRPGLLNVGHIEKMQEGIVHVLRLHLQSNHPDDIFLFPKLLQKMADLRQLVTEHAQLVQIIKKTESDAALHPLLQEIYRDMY
# Test Name: Agonist activity at human PPARalpha expressed in CV1 cells by transactivation assay
# Type: functional, cell-based, CV-1
Measurement Name: EC50 (nM)

entry_smiles=Cc1oc(-c2ccc(Cl)cc2)nc1CCCC[C@H]1CO[C@@](C)(C(=O)O)OC1 value_measured=30

(I) COc1ccc(-c2nc(CCCC[C@H]3CO[C@@](C)(C(=O)O)OC3)c(C)o2)cc1
(II) Cc1ccc(-c2nc(CCCC[C@H]3CO[C@@](C)(C(=O)O)OC3)c(C(F)(F)F)o2)cc1
(III) CCc1ccc(-c2nc(CCCC[C@H]3CO[C@@](C)(C(=O)O)OC3)c(C)o2)cc1
q: hey, can you rank those compounds up there by EC50? biggest number first please # list labels per requested ordering
a: II, I, III

(A) Cc1ccc(-c2nc(CCCC[C@H]3CO[C@@](C)(C(=O)O)OC3)c(C)s2)cc1
(B) Cc1ccc(-c2nc(CCCC[C@H]3CO[C@@](C)(C(=O)O)OC3)c(C)o2)c(C)c1
q: Which item exceeds the other in EC50, A or B ? # answer = label of selected item
a: A
(A: 300 nM, B: 30 nM)
